- Tested on: Aβ42
- Assay procedure: Aβ42 production in H4 neuroglioma cells stably expressing human APP695 (Meso Scale Discovery electrochemiluminescence assay)
- Format: cell-based
- Assay context: higher ratio = more specific inhibition of Aβ42 over Aβ total
// Ratio Aβ(total)/Aβ42 (Aβ total IC50/Aβ42 IC50) lookup, one value per entry

Molecule	Result
Cc1ncc(-c2ccc(Nc3nc(C)c4c(n3)N(C)C3(CCOCC3)C(=O)N4C)cn2)o1 [Example 5]	>9
COc1cc(Nc2ncc3c(n2)N(C)C2(CCOCC2)C(=O)N3C)ccc1-c1cnc(C)o1 [Example 1]	>244
COc1cc(Nc2ncc3c(n2)N(C)C2(CC2)C(=O)N3c2ccc(F)cc2)ccc1-n1cnc(C)c1 [Example 46]	>306
COc1cc(Nc2ncc3c(n2)N(C)C2(CCOCC2)C(=O)N3C)ccc1-n1cnc(C)c1 [Example 2]	89
COc1cc(Nc2ncc3c(n2)N(C)C2(CCOC2)C(=O)N3CC(F)(F)F)ccc1-n1cnc(C)c1 (stereo not drawn) [Example 37e]	82

**Query** Look up and report measured Ratio Aβ(total)/Aβ42 (Aβ total IC50/Aβ42 IC50) for this entry: COc1cc(Nc2ncc3c(n2)NC2(CCOC2)C(=O)N3C)ccc1-n1cnc(C)c1 (stereo not drawn) [Example 20]
**Result** >90

**Query** Query Ratio Aβ(total)/Aβ42 (Aβ total IC50/Aβ42 IC50) for COc1cc(Nc2ncc3c(n2)N(C)C2(COC2)C(=O)N3C)ccc1-n1cnc(C)c1 [Example 41]
**Result** >25

**Query** # return recorded Ratio Aβ(total)/Aβ42 (Aβ total IC50/Aβ42 IC50) for input COc1cc(Nc2ncc3c(n2)N(C2CCCC2)C2(CC2)C(=O)N3C)ccc1-n1cnc(C)c1 [Example 38]
**Result** >15

**Query** Report measured Ratio Aβ(total)/Aβ42 (Aβ total IC50/Aβ42 IC50); entry is COc1cc(Nc2ncc3c(n2)NC2(CCOC2)C(=O)N3CC2CCOCC2)ccc1-n1cnc(C)c1 (stereo not drawn) [Example 22]
**Result** >9

From: patent US8865716B2
